Test: fu,cell by equilibrium dialysis of cell homogenate, HEK293
Format: in vitro ADME
Conditions: human, dialysis 4 h 37°C, 10 million cells/mL homogenate, read-out: fu,HEK293 Geomean
metric: fraction unbound at 4 h, 0.5 μM
Field format: numeric only.

Previously resolved entries follow.
COc1ccccc1Oc1c(NS(=O)(=O)c2ccc(C(C)(C)C)cc2)nc(-c2ncccn2)nc1OCCO : 0.0634
Cn1c(=O)c2c(ncn2C)n(C)c1=O : 0.248

Now look at this one.
Supply fraction unbound at 4 h, 0.5 μM value. Item: CCN(CC)CCCC(C)Nc1c2ccc(Cl)cc2nc2ccc(OC)cc12 (stereo not drawn)
0.0075

* * *

Assay: fu,cell by equilibrium dialysis of cell homogenate, HL60
Format: in vitro ADME
Details: human, dialysis 4 h 37°C, 10 million cells/mL homogenate, read-out: fu,HL60 Geomean
Mark each entry y if its fraction unbound at 4 h, 0.5 μM sits below 0.06, and n for all others.

CCCNC(=O)NS(=O)(=O)c1ccc(Cl)cc1 [Chlorpropamide] : n
CCC(C)(C)C(=O)O[C@H]1C[C@@H](C)C=C2C=C[C@H](C)[C@H](CC[C@@H]3C[C@@H](O)CC(=O)O3)[C@H]21 : y
Nc1ccc(/N=N/c2ccccc2)c(N)n1 : y
Cc1cccc(C)c1OCC(=O)N[C@@H](Cc1ccccc1)[C@@H](O)C[C@H](Cc1ccccc1)NC(=O)[C@H](C(C)C)N1CCCNC1=O : y
CC(C)n1c(/C=C/C(O)CC(O)CC(=O)O)c(-c2ccc(F)cc2)c2ccccc21 (centres unmarked) : y

Confirm or reject: fraction unbound at 4 h, 0.5 μM of CC[C@H](C)C(=O)O[C@H]1C[C@@H](C)C=C2C=C[C@H](C)[C@H](CC[C@@H]3C[C@@H](O)CC(=O)O3)[C@H]21 lies strictly below 0.06
y

Confirm or reject: fraction unbound at 4 h, 0.5 μM of Cc1ccccc1N1C(=O)c2cc(S(N)(=O)=O)c(Cl)cc2NC1C (centres unmarked) lies strictly below 0.06
n

Confirm or reject: fraction unbound at 4 h, 0.5 μM of COc1ccccc1Oc1c(NS(=O)(=O)c2ccc(C(C)(C)C)cc2)nc(-c2ncccn2)nc1OCCO lies strictly below 0.06
y
